system: Pseudomonas aeruginosa ATCC 10145; assay: MIC, standard dilution test, Pseudomonas aeruginosa ATCC 10145; assay type: cell-based; conditions: inoculum about 10^4 CFU/ml, 18-24 h at 37° C.
value type: Minimal inhibitory concentration (MIC)

- compound: "COC(=O)C1NC(=O)C2NC(=O)C(NC(=O)C3NC(=O)C4NC(=O)C(Cc5ccc(c(Cl)c5)Oc5cc3cc(c5OCCN3CCCC3)Oc3ccc(cc3Cl)C2O)NC(=O)C(N)c2ccc(O)c(c2)Oc2cc(O)cc4c2)c2ccc(O)c(c2)-c2c(O)cc(O)cc21.Cl.Cl (stereo not drawn)"
  result: 64
- compound: "COC(=O)C1NC(=O)C2NC(=O)C(NC(=O)C3NC(=O)C4NC(=O)C(Cc5ccc(c(Cl)c5)Oc5cc3cc(c5OCCCCN3C(=O)c5ccccc5C3=O)Oc3ccc(cc3Cl)C2O)NC(=O)C(N)c2ccc(O)c(c2)Oc2cc(O)cc4c2)c2ccc(O)c(c2)-c2c(O)cc(O)cc21.Cl (stereo not drawn)"
  result: "> 128"
- compound: "COC(=O)C1NC(=O)C2NC(=O)C(NC(=O)C3NC(=O)C4NC(=O)C(Cc5ccc(c(Cl)c5)Oc5cc3cc(c5OCCCCN)Oc3ccc(cc3Cl)C2O[C@@H]2O[C@H](CO)[C@@H](O)[C@H](O)[C@H]2NC(C)=O)NC(=O)C(N)c2ccc(O)c(c2)Oc2cc(O)cc4c2)c2ccc(O)c(c2)-c2c(O[C@H]3O[C@H](CO)[C@@H](O)[C@H](O)[C@@H]3O)cc(O)cc21 (stereo partly drawn)"
  result: "> 128"

----------
test system: Neisseria gonorrhoeae ISM68/126; experiment: MIC, standard dilution test, Neisseria gonorrhoeae ISM68/126; assay type: cell-based; conditions: inoculum about 10^4 CFU/ml, 18-24 h at 37° C.

- compound: "N#CCOC(=O)C1NC(=O)C2NC(=O)C(NC(=O)C3NC(=O)C4NC(=O)C(Cc5ccc(c(Cl)c5)Oc5cc3cc(c5OCC#N)Oc3ccc(cc3Cl)C2O)NC(=O)C(N)c2ccc(O)c(c2)Oc2cc(O)cc4c2)c2ccc(O)c(c2)-c2c(O)cc(O)cc21.O=C(O)C(F)(F)F (stereo not shown)"
  cmp: ">"
  Minimal inhibitory concentration (MIC): 128
- compound: "COC(=O)C1NC(=O)C2NC(=O)C(NC(=O)C3NC(=O)C4NC(=O)C(Cc5ccc(c(Cl)c5)Oc5cc3cc(c5OCC3CO3)Oc3ccc(cc3Cl)C2O)NC(=O)C(N)c2ccc(O)c(c2)Oc2cc(O)cc4c2)c2ccc(O)c(c2)-c2c(O)cc(O)cc21.Cl (stereo not shown)"
  cmp: "="
  Minimal inhibitory concentration (MIC): 64
- compound: "COC(=O)C1NC(=O)C2NC(=O)C(NC(=O)C3NC(=O)C4NC(=O)C(Cc5ccc(c(Cl)c5)Oc5cc3cc(c5OC(CCO)C(=O)NCCN)Oc3ccc(cc3Cl)C2O)NC(=O)C(N)c2ccc(O)c(c2)Oc2cc(O)cc4c2)c2ccc(O)c(c2)-c2c(O)cc(O)cc21.Cl (stereo not shown)"
  cmp: "="
  Minimal inhibitory concentration (MIC): 64
- compound: "NC1C(=O)NC2Cc3ccc(c(Cl)c3)Oc3cc4cc(c3OC3CCOC3=O)Oc3ccc(cc3Cl)C(O)C3NC(=O)C(NC(=O)C4NC(=O)C(NC2=O)c2cc(O)cc(c2)Oc2cc1ccc2O)c1ccc(O)c(c1)-c1c(O)cc(O)cc1C(C(=O)OCc1ccccc1)NC3=O (stereo not shown)"
  cmp: ">"
  Minimal inhibitory concentration (MIC): 128
- compound: "NCCNC(=O)C(CCO)OC(=O)C1NC(=O)C2NC(=O)C(NC(=O)C3NC(=O)C4NC(=O)C(Cc5ccc(c(Cl)c5)Oc5cc3cc(c5OC(CCO)C(=O)NCCN)Oc3ccc(cc3Cl)C2O)NC(=O)C(N)c2ccc(O)c(c2)Oc2cc(O)cc4c2)c2ccc(O)c(c2)-c2c(O)cc(O)cc21 (stereo not shown)"
  cmp: "="
  Minimal inhibitory concentration (MIC): 128
- compound: "NC1C(=O)NC2Cc3ccc(c(Cl)c3)Oc3cc4cc(c3OCc3ccccc3)Oc3ccc(cc3Cl)C(O)C3NC(=O)C(NC(=O)C4NC(=O)C(NC2=O)c2cc(O)cc(c2)Oc2cc1ccc2O)c1ccc(O)c(c1)-c1c(O)cc(O)cc1C(C(=O)OCc1ccccc1)NC3=O (stereo not shown)"
  cmp: ">"
  Minimal inhibitory concentration (MIC): 128
- compound: "NCCNCCOc1c2cc3cc1Oc1ccc(cc1Cl)C(O)C1NC(=O)C(NC(=O)C3NC(=O)C3NC(=O)C(Cc4ccc(c(Cl)c4)O2)NC(=O)C(N)c2ccc(O)c(c2)Oc2cc(O)cc3c2)c2ccc(O)c(c2)-c2c(O)cc(O)cc2C(C(=O)NCCN)NC1=O (stereo not shown)"
  cmp: "="
  Minimal inhibitory concentration (MIC): 64

----------
Measured Minimal inhibitory concentration (MIC) of individual entries
tested on: Strep. pneumoniae UC41; test: MIC, standard dilution test, Strep. pneumoniae UC41; format: cell-based; conditions: inoculum about 10^4 CFU/ml, 18-24 h at 37° C.
value type: Minimal inhibitory concentration (MIC)

- molecule: "COC(=O)C1NC(=O)C2NC(=O)C(NC(=O)C3NC(=O)C4NC(=O)C(Cc5ccc(c(Cl)c5)Oc5cc3cc(c5OC(CCO)C(=O)NCCN)Oc3ccc(cc3Cl)C2O)NC(=O)C(N)c2ccc(O)c(c2)Oc2cc(O)cc4c2)c2ccc(O)c(c2)-c2c(O)cc(O)cc21.Cl (stereo not drawn)"
  measured number: 0.25
- molecule: "COC(=O)C1NC(=O)C2NC(=O)C(NC(=O)C3NC(=O)C4NC(=O)C(Cc5ccc(c(Cl)c5)Oc5cc3cc(c5OCC3CO3)Oc3ccc(cc3Cl)C2O)NC(=O)C(N)c2ccc(O)c(c2)Oc2cc(O)cc4c2)c2ccc(O)c(c2)-c2c(O)cc(O)cc21.Cl (stereo not drawn)"
  measured number: 0.125
- molecule: "COC(=O)C1NC(=O)C2NC(=O)C(NC(=O)C3NC(=O)C4NC(=O)C(Cc5ccc(c(Cl)c5)Oc5cc3cc(c5OCCCCN)Oc3ccc(cc3Cl)C2O[C@@H]2O[C@H](CO)[C@@H](O)[C@H](O)[C@H]2NC(C)=O)NC(=O)C(N)c2ccc(O)c(c2)Oc2cc(O)cc4c2)c2ccc(O)c(c2)-c2c(O[C@H]3O[C@H](CO)[C@@H](O)[C@H](O)[C@@H]3O)cc(O)cc21 (stereo partly drawn)"
  measured number: 1

----------
Measured Minimal inhibitory concentration (MIC) of individual entries
tested on: Neisseria gonorrhoeae ISM68/126; experiment: MIC, standard dilution test, Neisseria gonorrhoeae ISM68/126; assay type: cell-based; settings: inoculum about 10^4 CFU/ml, 18-24 h at 37° C.
value type: Minimal inhibitory concentration (MIC)

- molecule: "COC(=O)C1NC(=O)C2NC(=O)C(NC(=O)C3NC(=O)C4NC(=O)C(Cc5ccc(c(Cl)c5)Oc5cc3cc(c5OCCN3CCOCC3)Oc3ccc(cc3Cl)C2O)NC(=O)C(N)c2ccc(O)c(c2)Oc2cc(O)cc4c2)c2ccc(O)c(c2)-c2c(O)cc(O)cc21.Cl.Cl (stereo not drawn)"
  value type: "Minimal inhibitory concentration (MIC)"
  result: 64
- molecule: "COC(=O)C1NC(=O)C2NC(=O)C(NC(=O)C3NC(=O)C4NC(=O)C(Cc5ccc(c(Cl)c5)Oc5cc3cc(c5OCCCCN)Oc3ccc(cc3Cl)C2O[C@@H]2O[C@H](CO)[C@@H](O)[C@H](O)[C@H]2NC(C)=O)NC(=O)C(N)c2ccc(O)c(c2)Oc2cc(O)cc4c2)c2ccc(O)c(c2)-c2c(O[C@H]3O[C@H](CO)[C@@H](O)[C@H](O)[C@@H]3O)cc(O)cc21 (stereo partly drawn)"
  value type: "Minimal inhibitory concentration (MIC)"
  result: "> 128"
- molecule: "COC(=O)C1NC(=O)C2NC(=O)C(NC(=O)C3NC(=O)C4NC(=O)C(Cc5ccc(c(Cl)c5)Oc5cc3cc(c5OCCCCN3C(=O)c5ccccc5C3=O)Oc3ccc(cc3Cl)C2O)NC(=O)C(N)c2ccc(O)c(c2)Oc2cc(O)cc4c2)c2ccc(O)c(c2)-c2c(O)cc(O)cc21.Cl (stereo not drawn)"
  value type: "Minimal inhibitory concentration (MIC)"
  result: "> 128"

----------
test system: Strep. pneumoniae UC41; test: MIC, standard dilution test, Strep. pneumoniae UC41; format: cell-based; conditions: inoculum about 10^4 CFU/ml, 18-24 h at 37° C.
value type: Minimal inhibitory concentration (MIC)

- molecule: "NC1C(=O)NC2Cc3ccc(c(Cl)c3)Oc3cc4cc(c3OCc3ccccc3)Oc3ccc(cc3Cl)C(O)C3NC(=O)C(NC(=O)C4NC(=O)C(NC2=O)c2cc(O)cc(c2)Oc2cc1ccc2O)c1ccc(O)c(c1)-c1c(O)cc(O)cc1C(C(=O)OCc1ccccc1)NC3=O (centres unmarked)"
  result: 0.25
- molecule: "NC1C(=O)NC2Cc3ccc(c(Cl)c3)Oc3cc4cc(c3OC3CCOC3=O)Oc3ccc(cc3Cl)C(O)C3NC(=O)C(NC(=O)C4NC(=O)C(NC2=O)c2cc(O)cc(c2)Oc2cc1ccc2O)c1ccc(O)c(c1)-c1c(O)cc(O)cc1C(C(=O)OC1CCOC1=O)NC3=O (centres unmarked)"
  result: 0.5
- molecule: "NC1C(=O)NC2Cc3ccc(c(Cl)c3)Oc3cc4cc(c3OC3CCOC3=O)Oc3ccc(cc3Cl)C(O)C3NC(=O)C(NC(=O)C4NC(=O)C(NC2=O)c2cc(O)cc(c2)Oc2cc1ccc2O)c1ccc(O)c(c1)-c1c(O)cc(O)cc1C(C(=O)OCc1ccccc1)NC3=O (centres unmarked)"
  result: 0.25
- molecule: "N#CCOC(=O)C1NC(=O)C2NC(=O)C(NC(=O)C3NC(=O)C4NC(=O)C(Cc5ccc(c(Cl)c5)Oc5cc3cc(c5OCC#N)Oc3ccc(cc3Cl)C2O)NC(=O)C(N)c2ccc(O)c(c2)Oc2cc(O)cc4c2)c2ccc(O)c(c2)-c2c(O)cc(O)cc21.O=C(O)C(F)(F)F (centres unmarked)"
  result: 0.125
- molecule: "COC(=O)C1NC(=O)C2NC(=O)C(NC(=O)C3NC(=O)C4NC(=O)C(Cc5ccc(c(Cl)c5)Oc5cc3cc(c5OCCCCN3C(=O)c5ccccc5C3=O)Oc3ccc(cc3Cl)C2O)NC(=O)C(N)c2ccc(O)c(c2)Oc2cc(O)cc4c2)c2ccc(O)c(c2)-c2c(O)cc(O)cc21.Cl (centres unmarked)"
  result: 0.125
- molecule: "COC(=O)C1NC(=O)C2NC(=O)C(NC(=O)C3NC(=O)C4NC(=O)C(Cc5ccc(c(Cl)c5)Oc5cc3cc(c5OCCBr)Oc3ccc(cc3Cl)C2O)NC(=O)C(N)c2ccc(O)c(c2)Oc2cc(O)cc4c2)c2ccc(O)c(c2)-c2c(O)cc(O)cc21 (centres unmarked)"
  result: 0.25
- molecule: "COC(=O)C1NC(=O)C2NC(=O)C(NC(=O)C3NC(=O)C4NC(=O)C(Cc5ccc(c(Cl)c5)Oc5cc3cc(c5OCCO)Oc3ccc(cc3Cl)C2O)NC(=O)C(N)c2ccc(O)c(c2)Oc2cc(O)cc4c2)c2ccc(O)c(c2)-c2c(O)cc(O)cc21 (centres unmarked)"
  result: 0.125
- molecule: "COC(=O)C1NC(=O)C2NC(=O)C(NC(=O)C3NC(=O)C4NC(=O)C(Cc5ccc(c(Cl)c5)Oc5cc3cc(c5OCCCCN)Oc3ccc(cc3Cl)C2O)NC(=O)C(N)c2ccc(O)c(c2)Oc2cc(O)cc4c2)c2ccc(O)c(c2)-c2c(O)cc(O)cc21 (centres unmarked)"
  result: 0.125

Where do these numbers come from? They come from patent US5185320A.
